Each item that follows carries a reported viability at 48 h, 10 µM.
measurementDescription: MTT viability assay in macrophage-like differentiated HL-60 cells
Type: cell-based, human
conditionInfo: human, macrophage-like differentiated HL-60 cells (PMA); differentiated HL-60 cells, dose 10 µM, 48 h, MTT, mean ± SD
measuredQuantity: viability at 48 h, 10 µM (%)

molecule=OCc1c[nH]c2ccccc12 measured=93.6
molecule=O=C(/C=C/c1ccc(O)c(O)c1)O[C@@H]1C[C@](O)(C(=O)O)C[C@@H](O)[C@H]1O measured=114
molecule="OC[C@H]1O[C@@H](Oc2cc3c(O)cc(O)cc3[o+]c2-c2ccc(O)c(O)c2)[C@H](O)[C@@H](O)[C@@H]1O [C3G, cyanidin-3-glucoside chloride]" measured=114
molecule=c1ccc2c(Cc3c[nH]c4ccccc34)c[nH]c2c1 measured=102
molecule="C[S+]([O-])CCCCN=C=S (centres unmarked)" measured=98.2

---

measurementDescription: MTT viability assay in macrophage-like differentiated HL-60 cells
Format: cell-based, human
conditionInfo: human, macrophage-like differentiated HL-60 cells (PMA); differentiated HL-60 cells, dose 50 µM, 48 h, MTT, mean ± SD
measuredQuantity: viability at 48 h, 50 µM (%)

molecule="C[S+]([O-])CCCCN=C=S (centres unmarked)" measuredquantity="viability at 48 h, 50 µM" readoutunits=% measured=70
molecule=c1ccc2c(Cc3c[nH]c4ccccc34)c[nH]c2c1 measuredquantity="viability at 48 h, 50 µM" readoutunits=% measured=105
molecule="OC[C@H]1O[C@@H](Oc2cc3c(O)cc(O)cc3[o+]c2-c2ccc(O)c(O)c2)[C@H](O)[C@@H](O)[C@@H]1O [C3G, cyanidin-3-glucoside chloride]" measuredquantity="viability at 48 h, 50 µM" readoutunits=% measured=107
molecule=O=C(/C=C/c1ccc(O)c(O)c1)O[C@@H]1C[C@](O)(C(=O)O)C[C@@H](O)[C@H]1O measuredquantity="viability at 48 h, 50 µM" readoutunits=% measured=109
molecule=OCc1c[nH]c2ccccc12 measuredquantity="viability at 48 h, 50 µM" readoutunits=% measured=95.1

---

Each item that follows carries a reported viability at 48 h, 25 µM.
measurementDescription: MTT viability assay in macrophage-like differentiated HL-60 cells
Type: cell-based, human
conditionInfo: human, macrophage-like differentiated HL-60 cells (PMA); differentiated HL-60 cells, dose 25 µM, 48 h, MTT, mean ± SD
measuredQuantity: viability at 48 h, 25 µM (%)

compound="OC[C@H]1O[C@@H](Oc2cc3c(O)cc(O)cc3[o+]c2-c2ccc(O)c(O)c2)[C@H](O)[C@@H](O)[C@@H]1O [C3G, cyanidin-3-glucoside chloride]" measured=108
compound="c1ccc2c(Cc3c[nH]c4ccccc34)c[nH]c2c1 [DIM, 3,3′-Diindolmethane]" measured=118
compound="C[S+]([O-])CCCCN=C=S (centres unmarked) [SFN, sulforaphane]" measured=87.6
compound="O=C(/C=C/c1ccc(O)c(O)c1)O[C@@H]1C[C@](O)(C(=O)O)C[C@@H](O)[C@H]1O [CQA, Chlorogenic acid]" measured=114
compound="OCc1c[nH]c2ccccc12 [I3C, indole-3-carbinol]" measured=99.5
